Origin of the recorded values: patent US20070092518A1

- System under test: T1, human tumor necrosis factor-α (rHuTNF-alpha, Biosource) (human, UniProt P01375 77-233)
- T1 construct: Bought recombinant protein coated on ELISA plates; The TNFα of the Biacore assay is not described further; also called TNFα; human TNFα
- T1 sequence (P01375 77-233 limits assumed): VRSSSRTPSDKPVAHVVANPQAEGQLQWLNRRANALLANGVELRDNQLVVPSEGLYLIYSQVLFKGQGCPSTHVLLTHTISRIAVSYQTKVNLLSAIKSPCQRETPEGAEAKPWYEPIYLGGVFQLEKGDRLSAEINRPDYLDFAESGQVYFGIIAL
- Protocol summary: solid-phase ELISA, Fab lysate on coated rHuTNF-alpha
Quantity measured: binding result

INSERT INTO assay_data (binder, quantity_measured, result) VALUES
  ('SEQ ID NO 187 (Fab, V domains shown, Fab, E. coli lysate) VH: EVQLTESGGGLVQPGGSLRLSCAASGFTFSNHYMNWVRQAPGKGLEWIGEIRSKSSYGATSYAESVKGRFIISRDGNGTDLYLEMNSLKTEDTAEYYCAQNYYGSTYDYWGQGTLVTVS VL: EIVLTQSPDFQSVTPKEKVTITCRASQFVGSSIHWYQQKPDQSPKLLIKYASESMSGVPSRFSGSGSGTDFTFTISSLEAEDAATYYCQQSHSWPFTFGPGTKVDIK', 'binding result', 'binds'),
  ('SEQ ID NO 88 (Fab, V domains shown, Fab, E. coli lysate) VH: EVQLVESGGGLVQPGGSLRLSCAASGFTFSNHWMNWVRQAPGKGLEWIGEIRSKSSNSATSYAESVKGRFIISRDGNKNDLTLEMNSLKTEDTAEYYCARNYYGSTYDYWGQGTLVTVS VL: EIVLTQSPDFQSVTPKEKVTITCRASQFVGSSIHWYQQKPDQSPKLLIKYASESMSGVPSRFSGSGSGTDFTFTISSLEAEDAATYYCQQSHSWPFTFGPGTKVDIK', 'binding result', 'binds'),
  ('SEQ ID NO 94 (Fab, V domains shown, Fab, E. coli lysate) VH: EVQLVESGGGLVQPGGSLRLSCRASGSIFSNHWMNWVRQAPGKGLEWIGEIRSKSINGATHYAESVKGRFIISRDDNGTSLYLEMNSLKTEDTAEYYCARNYYGSTYDYWGQGTLVTVS VL: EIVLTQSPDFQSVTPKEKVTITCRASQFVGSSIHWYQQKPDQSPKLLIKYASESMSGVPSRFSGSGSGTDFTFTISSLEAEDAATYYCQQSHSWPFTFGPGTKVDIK', 'binding result', 'binds');
